B1: LINE1-full (parent)
chain: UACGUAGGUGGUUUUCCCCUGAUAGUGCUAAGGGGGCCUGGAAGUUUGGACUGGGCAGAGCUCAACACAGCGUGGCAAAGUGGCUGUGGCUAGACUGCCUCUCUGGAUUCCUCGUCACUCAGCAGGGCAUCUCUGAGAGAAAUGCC

# Variants of: B1
# experimental.details: self-cleavage, relative activity (ratio to wild type); higher = more cleavage; in vitro, sequencing; the parent is a self-cleaving ribozyme
Each entry falls into one class according to its self-cleavage; the ranges are low-valued = under 0.6, mid-valued = from 0.6 up to 1, high-valued = 1 and over

[[record]]
chain = "UACGUAGGUGGUUUUCCCCUGAUAGCGCUAAGGGGGCCUGGAAGUCUGGACUGGGCAGAGCUCAACACAGCGUGGCAAAGUGGCUGUGGCUAGACUGCCUCUCUGGAUUCCUCGUCACUCAGCAGGGCAUCUCUGAGAGAAAUGCC"
group = "high-valued"

[[record]]
chain = "UACGUUGGUGGUUUUCCCCUGAUAGUGCUAAGGGGGCCUGGAAGUUUGGACUGGGCAGAGCUCAACACAGCGUGGCAAAGUGGCUGUGGCUAGACUGCCUCUCUGGAUUCCUCGUCACUCAGCAGGGCAUCUAUGAGAGAAAUGCC"
group = "low-valued"


Continue with the variant presented below.
For this variant, which bin applies? UACGUAGGUGGUUUUCCCCUGAUAGUGCUAAGGGGGCCUGGAAGUUUGGACUGGGCAGAGCUCUACACAGCGUGGCAAAGUGGCUGUGGCUAGACUGCCUCUCCGGAUUCCUCGUCACUCAGCAGGGCAUCUCUGAGAGAAAUGCC
mid-valued
